# System: SiHa
# test_description: Cytotoxicity against SiHa cells under hypoxic condition after 4 hrs
# Type: functional, cell-based
# condition_context: Homo sapiens
pIC50: −log10 of the molar value.
reported_metric: pIC50

>>> recorded_value("COCCc1n[n+]([O-])c2ccc(C)cc2[n+]1[O-]")
5.72
>>> recorded_value("[O-][n+]1nc(CCN2CCOCC2)[n+]([O-])c2ccccc21")
5.66
>>> recorded_value("CCc1n[n+]([O-])c2ccc(OCCCO)cc2[n+]1[O-]")
5.07
>>> recorded_value("CCc1n[n+]([O-])c2ccc(OCCOC)cc2[n+]1[O-]")
4.85
>>> recorded_value("CCc1n[n+]([O-])c2cc(OCCOC)ccc2[n+]1[O-]")
5.74
>>> recorded_value("[O-][n+]1nc(CCCN2CCOCC2)[n+]([O-])c2ccccc21")
6.00
>>> recorded_value("COCCCc1n[n+]([O-])c2ccccc2[n+]1[O-]")
5.62
>>> recorded_value("CCc1n[n+]([O-])c2cc(OCCN(C)C)ccc2[n+]1[O-]")
6.30
>>> recorded_value("CCc1n[n+]([O-])c2ccc(C)cc2[n+]1[O-]")
5.44
>>> recorded_value("CCc1n[n+]([O-])c2ccccc2[n+]1[O-]")
5.23
>>> recorded_value("Cc1ccc2c(c1)[n+]([O-])c(CCO)n[n+]2[O-]")
5.92
>>> recorded_value("[O-][n+]1nc(CCCN2CCCCC2)[n+]([O-])c2ccccc21")
6.22
>>> recorded_value("[O-][n+]1nc(CCCO)[n+]([O-])c2ccccc21")
5.51
>>> recorded_value("CCc1n[n+]([O-])c2ccc(OCCN(C)C)cc2[n+]1[O-]")
6.10
>>> recorded_value("CCc1n[n+]([O-])c2ccc(OCCN3CCCCC3)cc2[n+]1[O-]")
6.00
>>> recorded_value("COc1n[n+]([O-])c2ccccc2[n+]1[O-]")
5.96
>>> recorded_value("[O-][n+]1nc(CCO)[n+]([O-])c2ccccc21")
5.77
>>> recorded_value("CCc1n[n+]([O-])c2cc(OCCCN3CCOCC3)ccc2[n+]1[O-]")
5.89
>>> recorded_value("Cc1n[n+]([O-])c2ccccc2[n+]1[O-]")
5.52
>>> recorded_value("COCCc1n[n+]([O-])c2ccccc2[n+]1[O-]")
5.80
